Reported values: Ki for Carbonic anhydrase 13 (Mus musculus, UniProt Q9D6N1), one per item.
Field: numeric (µM). Do not append units.

>  <smiles-record>
NCCNCCN

>  <Ki [µM]>
11.5

$$$$

Which measured Ki belongs to NCCNc1cccc2ccccc12 , tested on Carbonic anhydrase 13 (Mus musculus, UniProt Q9D6N1)?
0.62

----------
System: Carbonic anhydrase 4 (Homo sapiens) | Read-out: pKi
Sequence (P22748 whole entry): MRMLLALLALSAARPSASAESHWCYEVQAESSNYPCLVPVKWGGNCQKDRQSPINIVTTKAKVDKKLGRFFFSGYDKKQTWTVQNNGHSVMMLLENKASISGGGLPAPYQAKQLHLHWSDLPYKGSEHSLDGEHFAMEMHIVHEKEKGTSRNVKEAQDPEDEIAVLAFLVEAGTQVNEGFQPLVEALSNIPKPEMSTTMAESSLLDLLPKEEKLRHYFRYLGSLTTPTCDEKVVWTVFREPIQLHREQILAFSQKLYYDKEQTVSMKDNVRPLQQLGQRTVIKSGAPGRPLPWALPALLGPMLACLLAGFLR
In simple prose, pKi is minus the logarithm base ten of a concentration in moles per litre.

>  <smiles-record>
CC(C)(C)OC(=O)N(CCCN)CCCCN(CCCN)C(=O)OC(C)(C)C

>  <tested-target>
Carbonic anhydrase 4 (Homo sapiens)

>  <pKi>
3.99

$$$$
>  <smiles-record>
NCCCCCN

>  <tested-target>
Carbonic anhydrase 4 (Homo sapiens)

>  <pKi>
7.28

$$$$
>  <smiles-record>
CC(C)(C)OC(=O)N(CCCCN(CCCNC(=O)C(F)(F)F)C(=O)OC(C)(C)C)CCCNC(=O)C(F)(F)F

>  <tested-target>
Carbonic anhydrase 4 (Homo sapiens)

>  <pKi>
3.98

$$$$
>  <smiles-record>
CC(=O)NCCNc1cccc2ccccc12

>  <tested-target>
Carbonic anhydrase 4 (Homo sapiens)

>  <pKi>
4.91

$$$$
>  <smiles-record>
O=C(NCCNCCCNCCNC(=O)C(F)(F)F)C(F)(F)F

>  <tested-target>
Carbonic anhydrase 4 (Homo sapiens)

>  <pKi>
3.97

$$$$

Field request: pKi | item: O=C(NCCCNCCCCNCCCNC(=O)C(F)(F)F)C(F)(F)F
6.94

Ok, now CN(C)CCN(C)CCN(C)CCN(C)C
7.28

----------
Reported pKi for target or system Carbonic anhydrase 13 (Mus musculus, UniProt Q9D6N1), by entry.
Expect pKi as a plain number equal to -log10 of the molar concentration.

Reference set, count: 3
>  <smiles-record>
CN(C)CCN(C)CCN(C)CCN(C)C

>  <observed>
6.24

$$$$
>  <smiles-record>
NCCCCCCN

>  <observed>
6.16

$$$$
>  <smiles-record>
NCCCCCN

>  <observed>
6.20

$$$$

Recorded pKi for CC(=O)NCCNc1cccc2ccccc12 , please?
3.90

----------
Target: Carbonic anhydrase 15 (Mus musculus)
Sequence (Q99N23 whole entry): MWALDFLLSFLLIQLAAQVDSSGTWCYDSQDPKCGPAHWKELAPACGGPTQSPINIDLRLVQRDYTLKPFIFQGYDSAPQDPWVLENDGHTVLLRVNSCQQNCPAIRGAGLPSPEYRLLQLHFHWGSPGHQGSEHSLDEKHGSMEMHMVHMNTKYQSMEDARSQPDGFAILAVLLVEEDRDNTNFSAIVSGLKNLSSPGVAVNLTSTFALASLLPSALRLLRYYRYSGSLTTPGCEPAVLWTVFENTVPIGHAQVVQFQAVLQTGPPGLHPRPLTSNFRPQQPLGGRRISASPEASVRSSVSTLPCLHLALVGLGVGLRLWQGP
We begin with a simple list: items and their reported Ki.
Form entry: value (µM) — number only.

>  <compound>
NCCCNCCCCNCCCN [SPERMINE]

>  <tested-target>
Carbonic anhydrase 15 (Mus musculus)

>  <attribute-measured>
Ki

>  <observed>
74

$$$$
>  <compound>
NCCCCCCN

>  <tested-target>
Carbonic anhydrase 15 (Mus musculus)

>  <attribute-measured>
Ki

>  <observed>
0.66

$$$$
>  <compound>
CC(C)(C)OC(=O)N(CCCN)CCCCN(CCCN)C(=O)OC(C)(C)C

>  <tested-target>
Carbonic anhydrase 15 (Mus musculus)

>  <attribute-measured>
Ki

>  <observed>
236

$$$$
>  <compound>
O=C(NCCCNCCCCNCCCNC(=O)C(F)(F)F)C(F)(F)F

>  <tested-target>
Carbonic anhydrase 15 (Mus musculus)

>  <attribute-measured>
Ki

>  <observed>
110

$$$$
>  <compound>
NCCNc1cccc2ccccc12

>  <tested-target>
Carbonic anhydrase 15 (Mus musculus)

>  <attribute-measured>
Ki

>  <observed>
0.57

$$$$

Requested read-out: Ki. Entry: CC(=O)NCCNc1cccc2ccccc12
110

Same question for CN(C)CCN(C)CCN(C)CCN(C)C please.
0.76

----------
List of pKi values.
Target: Carbonic anhydrase 2 (Homo sapiens)
FYI, pKi means -log10 of a concentration in mol per litre.

Consider the following illustrative entries.
>  <smiles-record>
CC(=O)NCCNc1cccc2ccccc12

>  <pKi>
3.92

$$$$
>  <smiles-record>
NCCNCCNCCN

>  <pKi>
4.19

$$$$
>  <smiles-record>
NCCNCCN

>  <pKi>
3.93

$$$$
>  <smiles-record>
NCCNCCCNCCN

>  <pKi>
4.12

$$$$

Look up pKi for this compound: O=C(NCCCNCCCCNCCCNC(=O)C(F)(F)F)C(F)(F)F
4.95

----------
Target: Carbonic anhydrase 1 (Homo sapiens, UniProt P00915)
Sequence (P00915 whole entry): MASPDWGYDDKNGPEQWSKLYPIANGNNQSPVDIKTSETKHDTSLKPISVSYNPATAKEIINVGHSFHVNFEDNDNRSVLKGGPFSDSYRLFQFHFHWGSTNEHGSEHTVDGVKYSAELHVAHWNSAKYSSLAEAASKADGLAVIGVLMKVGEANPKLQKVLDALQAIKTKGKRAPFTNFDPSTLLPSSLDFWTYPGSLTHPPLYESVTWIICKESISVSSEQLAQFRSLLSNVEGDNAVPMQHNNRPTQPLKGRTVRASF
attribute-measured: pKi
Interpret pKi as the negative base-10 log of the concentration measured in mol/L.

>  <compound>
NCCCCCCN

>  <pKi>
4.90

$$$$
>  <compound>
NCCCNCCCCNCCCN [SPERMINE]

>  <pKi>
3.64

$$$$

Now examine the next entry.
// returns reported pKi for input NCCNCCNCCN [TRIENTINE]
4.00

----------
Target: Carbonic anhydrase 9 (Homo sapiens)
attribute-measured: pKi
By convention, pKi is the negative base-10 log of a molar concentration.

Reference set, count: 2
>  <smiles-record>
NCCNCCN

>  <pKi>
4.97

$$$$
>  <smiles-record>
NCCCNCCCCNCCCN

>  <pKi>
4.88

$$$$

Item NCCCCNCCCN has what recorded pKi?
5.86

Same thing, different compound: CN(C)CCN(C)CCN(C)CCN(C)C
6.51

Now consider O=C(NCCCNCCCCNCCCNC(=O)C(F)(F)F)C(F)(F)F and answer again.
4.94

And for O=C(NCCNCCCNCCNC(=O)C(F)(F)F)C(F)(F)F ?
3.93

Now consider NCCCCCCN .
6.39

Next up: CC(=O)NCCNc1cccc2ccccc12
4.91

And then CC(C)(C)OC(=O)N(CCCN)CCCCN(CCCN)C(=O)OC(C)(C)C , what is it?
3.84

----------
Target: Carbonic anhydrase 7 (Homo sapiens)
Sequence (P43166 whole entry): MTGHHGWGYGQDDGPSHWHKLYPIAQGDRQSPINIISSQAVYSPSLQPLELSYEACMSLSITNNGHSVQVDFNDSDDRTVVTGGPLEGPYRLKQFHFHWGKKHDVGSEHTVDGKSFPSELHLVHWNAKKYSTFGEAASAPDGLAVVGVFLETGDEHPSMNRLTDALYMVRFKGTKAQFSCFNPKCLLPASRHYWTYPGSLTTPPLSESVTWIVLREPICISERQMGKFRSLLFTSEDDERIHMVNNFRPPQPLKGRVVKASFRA
attribute-measured: pKi
Schema: pKi number; meaning minus log10 of the concentration expressed in molar units.

>  <smiles-record>
CC(=O)NCCNc1cccc2ccccc12

>  <tested-target>
Carbonic anhydrase 7 (Homo sapiens)

>  <pKi>
5.91

$$$$
>  <smiles-record>
CC(C)(C)OC(=O)N(CCCCN(CCCNC(=O)C(F)(F)F)C(=O)OC(C)(C)C)CCCNC(=O)C(F)(F)F

>  <tested-target>
Carbonic anhydrase 7 (Homo sapiens)

>  <pKi>
3.97

$$$$

Name the recorded pKi for NCCCCCCN .
6.36

Check CN(C)CCN(C)CCN(C)CCN(C)C too.
6.14

Lookup NCCNCCNCCN
4.35

----------
Each entry below lists one item and its recorded pKi value.
Biological target: Carbonic anhydrase 5A, mitochondrial (Homo sapiens, UniProt P35218)
Sequence (P35218 whole entry): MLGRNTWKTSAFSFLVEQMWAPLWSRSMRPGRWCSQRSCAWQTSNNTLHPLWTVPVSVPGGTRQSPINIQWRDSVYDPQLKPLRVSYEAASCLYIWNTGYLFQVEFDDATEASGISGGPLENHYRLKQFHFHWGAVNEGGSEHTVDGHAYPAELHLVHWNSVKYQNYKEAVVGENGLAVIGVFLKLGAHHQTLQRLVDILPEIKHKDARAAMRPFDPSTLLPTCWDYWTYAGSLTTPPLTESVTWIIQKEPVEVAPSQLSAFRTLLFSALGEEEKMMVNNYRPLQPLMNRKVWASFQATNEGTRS
The read-out pKi is expressed as -log10 of concentration in moles per litre.

For the compound CN(C)CCN(C)CCN(C)CCN(C)C , what pKi is on record?
7.33

Same lookup for CC(=O)NCCNc1cccc2ccccc12 , please.
3.97

----------
Parameter 'readout' = pKi; parameter 'system' = Carbonic anhydrase 2 (Homo sapiens, UniProt P00918).
pKi field: float, defined as -log10 of concentration (mol/L).

>  <smiles-record>
NCCCCCCN

>  <observed>
4.46

$$$$
>  <smiles-record>
O=C(NCCNCCCNCCNC(=O)C(F)(F)F)C(F)(F)F

>  <observed>
3.95

$$$$
>  <smiles-record>
CN(C)CCN(C)CCN(C)CCN(C)C

>  <observed>
4.95

$$$$
>  <smiles-record>
NCCNc1cccc2ccccc12

>  <observed>
3.99

$$$$
>  <smiles-record>
CC(C)(C)OC(=O)N(CCCCN(CCCNC(=O)C(F)(F)F)C(=O)OC(C)(C)C)CCCNC(=O)C(F)(F)F

>  <observed>
3.97

$$$$

# context switch: different molecule, same pKi
Which value of pKi has been reported for CC(C)(C)OC(=O)N(CCCN)CCCCN(CCCN)C(=O)OC(C)(C)C in the records?
3.96
